# target_under_test: T1, HCV bt-151-171 (Peptide 3, HCVc 151-171) (Hepatitis C virus (numbering per HCV-1), biotin (carboxy-terminal per; N-terminal per))
# T1 peptide: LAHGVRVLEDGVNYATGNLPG
# procedure_summary: EIA, captured mAb + biotin peptide
Reactivity (OD 492 nm) for assorted binders
The answer is to be given in OD units; state only the numeric part.

Here are 2 binders together with their reported answers.
binder	test_value
HCV 208B-251 (antibody, V domains shown) VH: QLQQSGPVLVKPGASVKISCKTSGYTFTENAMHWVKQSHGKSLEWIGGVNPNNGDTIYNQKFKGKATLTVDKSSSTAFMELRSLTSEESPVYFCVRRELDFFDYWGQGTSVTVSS VL: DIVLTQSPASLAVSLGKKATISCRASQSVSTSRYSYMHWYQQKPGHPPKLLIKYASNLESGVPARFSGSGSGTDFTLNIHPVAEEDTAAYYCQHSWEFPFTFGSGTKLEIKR	0.41
HCV 208B-515 (antibody, V domains shown) VH: QVQLQQPGAELVKPGASLKLSCRASGYTFTSYWIHWVKQRPGQGLEWIGEIDPSDSYTNYNQKFKGKATLTVDKSSRAAYMQLSSLTSEDSAVYYCARHYYGVFDSWGQGTKLTVSS VL: QIVFTQYPAIMSASLGERVTMTCTASSSVTSSYLHWFQQKPGSSPKLWIYSTSNPGSGVPARFSGRGSGTSYSLSISSMEAEDAATYYCLQFHRSPWTFGGGTKLEIRR	0.06

Field: next binder
Write down Reactivity (OD 492 nm) measured for item HCV 208B-826 (antibody, V domains shown) VH: DVQLVESGGGLVQAGGSRKLSCAASGFPFSSFGMHWVRQAPEKGLEWVASISSRTSKIYYADNLKGRFTISRDNPKNTLFLQMTSLGSEDTAMYYCVRSVFGNSYWFFDVWGAGTTVTVSS VL: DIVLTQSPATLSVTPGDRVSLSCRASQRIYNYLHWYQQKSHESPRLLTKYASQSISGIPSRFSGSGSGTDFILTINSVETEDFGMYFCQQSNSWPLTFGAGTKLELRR
0.08
